B1: NP_009172.2 (parent)
chain: LPALFTDLYSQEITAEEAREALP

Variants of: B1
ASSAY NAME: protein stability index of a GFP-peptide fusion (GPS, HEK-293T) (PSI 1-6); higher = more stable;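 also: lentivirally expressed fusion library, cells FACS-sorted into six equal-sized GFP/DsRed ratio bins, PSI computed from sequencing read fractions per bin weighted by bin number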
MEASUREMENT PARAMETERS: c terminus: native
# protein stability index per entry
VALUE TYPE: protein stability index

SEQUENCE INPUT | ENDPOINT VALUE
LPALFTDLYSQKITAEEAREALP [E12K] | 2.92
LPPLFTDLYSQEITAEEAREALP [A3P] | 2.62
LPALFTDLYSQEITAEEANEALP [R19N] | 2.71
